- System: Mus musculus
- Measurement Notes: Neurotoxicity in Mus musculus albino (mouse) assessed as minimal motor impairment at 300 mg/kg, ip measured at 0.5 hr
- Assay type: toxicity, organism-based
- Parameters: dose 300 mg/kg, route intraperitoneal
- Experimental Parameters: in vivo

{"Record Smiles": "O=c1c2ccccc2nc(/C=C/c2ccc(Cl)cc2)n1-c1nnc(-c2ccccc2)o1", "Assay System": "Mus musculus", "Activity": "Non-toxic"}
{"Record Smiles": "COc1ccc(-c2nnc(-n3c(/C=C/c4ccc(C)cc4)nc4ccccc4c3=O)o2)cc1", "Assay System": "Mus musculus", "Activity": "Non-toxic"}
{"Record Smiles": "Cc1ccc(/C=C/c2nc3ccccc3c(=O)n2-c2nnc(-c3ccc(Cl)cc3)o2)cc1", "Assay System": "Mus musculus", "Activity": "Non-toxic"}
{"Record Smiles": "Cc1ccc(/C=C/c2nc3ccccc3c(=O)n2-c2nnc(-c3ccccc3)o2)cc1", "Assay System": "Mus musculus", "Activity": "Non-toxic"}
{"Record Smiles": "Cc1ccc(/C=C/c2nc3ccccc3c(=O)n2-c2nnc(-c3ccc(C)cc3)o2)cc1", "Assay System": "Mus musculus", "Activity": "Non-toxic"}
{"Record Smiles": "O=c1c2ccccc2nc(/C=C/c2ccccc2)n1-c1nnc(-c2ccccc2)o1", "Assay System": "Mus musculus", "Activity": "Non-toxic"}
{"Record Smiles": "CN(C)c1ccc(-c2nnc(-n3c(/C=C/c4ccccc4)nc4ccccc4c3=O)o2)cc1", "Assay System": "Mus musculus", "Activity": "Non-toxic"}
{"Record Smiles": "Cc1ccc(-c2nnc(-n3c(/C=C/c4ccc(Cl)cc4)nc4ccccc4c3=O)o2)cc1", "Assay System": "Mus musculus", "Activity": "Non-toxic"}
{"Record Smiles": "O=c1c2ccccc2nc(/C=C/c2ccccc2)n1-c1nnc(-c2ccc(Cl)cc2)o1", "Assay System": "Mus musculus", "Activity": "Non-toxic"}
